Molecular target: [Pyruvate dehydrogenase (acetyl-transferring)] kinase isozyme 2, mitochondrial (Homo sapiens)
Experiment: Inhibition of E2-activated human PDHK2
IC50: recorded values
property: IC50 (nM)

# mol-smiles, test-result
measured = [
    ("C[C@@H]1CN(C(=O)[C@](C)(O)C(F)(F)F)[C@@H](C)CN1C(=O)c1ccc(C#N)cc1", 7.8),
    ("CN(C)C(=O)c1ccc(S(=O)(=O)c2ccc(NC(=O)[C@@](C)(O)C(F)(F)F)c(Cl)c2)cc1", 80),
]

----------
Papp: recorded values
Assay: Permeability across human Caco2 cells by liquid scintillation counting method
Assay type: ADME, cell-based
Details: caco-2
property: Papp

# molecule, property, test-result
records = [
    ("Cc1cccc(NC(=O)CSc2n[nH]c(-c3ccccc3O)n2)c1C", "Papp", "8.51 ×10⁻⁶ cm/s"),
    ("CC(C)Cc1ccc(C(C)C(=O)O)cc1 (stereo not drawn)", "Papp", "47.2 ×10⁻⁶ cm/s"),
    ("COc1cccc2c1C(=O)c1c(O)c3c(c(O)c1C2=O)C[C@@](O)(C(=O)CO)C[C@@H]3O[C@H]1C[C@H](N)[C@H](O)[C@H](C)O1", "Papp", "0.21 ×10⁻⁶ cm/s"),
]

Data origin, for the record: ChEMBL document CHEMBL4411306
